Catalogue of t1/2 readings, one per entry.
system.tested: T1, Macaca fascicularis IL2Rγ extracellular domain expressed with a C-terminal myc-myc-hexahistidine tag (Macaca fascicularis)
T1 construct: whole entry is the tagged construct; also called mfIL-2Rg-MMH
T1 chain: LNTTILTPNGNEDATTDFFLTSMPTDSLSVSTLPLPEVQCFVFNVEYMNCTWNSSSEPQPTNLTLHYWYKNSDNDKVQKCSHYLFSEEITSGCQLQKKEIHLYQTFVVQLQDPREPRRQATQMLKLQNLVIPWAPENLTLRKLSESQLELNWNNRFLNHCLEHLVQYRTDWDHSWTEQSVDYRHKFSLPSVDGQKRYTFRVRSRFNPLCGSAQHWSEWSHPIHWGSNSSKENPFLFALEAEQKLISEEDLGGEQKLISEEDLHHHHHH
assay.remarks: SPR Biacore 4000, anti-hFc-captured mAb, 37 C
Give a bare numeral; the unit min is implied.

Sample records with t1/2:
H4H12871P (antibody, human IgG4 S228P, kappa, V domains shown, fully human anti-IL2Rgamma mAb, human IgG4 Fc; also called REGN9434) VH: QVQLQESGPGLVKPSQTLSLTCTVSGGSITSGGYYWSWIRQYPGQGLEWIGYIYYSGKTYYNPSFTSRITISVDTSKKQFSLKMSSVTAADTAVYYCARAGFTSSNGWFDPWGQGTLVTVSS VL: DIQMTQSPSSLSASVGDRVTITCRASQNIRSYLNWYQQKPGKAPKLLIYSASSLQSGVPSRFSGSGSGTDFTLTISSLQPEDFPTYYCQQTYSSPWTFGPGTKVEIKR: 4
H4H12858P (antibody, human IgG4 S228P, kappa, V domains shown, fully human anti-IL2Rgamma mAb, human IgG4 Fc; also called REGN9433) VH: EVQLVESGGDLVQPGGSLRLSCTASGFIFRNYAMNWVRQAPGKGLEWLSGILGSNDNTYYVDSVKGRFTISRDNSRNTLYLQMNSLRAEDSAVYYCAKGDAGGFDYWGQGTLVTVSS VL: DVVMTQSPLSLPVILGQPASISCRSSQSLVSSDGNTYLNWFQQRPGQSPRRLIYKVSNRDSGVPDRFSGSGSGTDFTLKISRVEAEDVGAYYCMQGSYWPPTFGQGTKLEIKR: 8
H4H12889P (antibody, human IgG4 S228P, kappa, V domains shown, fully human anti-IL2Rgamma mAb, human IgG4 Fc; also called REGN7257) VH: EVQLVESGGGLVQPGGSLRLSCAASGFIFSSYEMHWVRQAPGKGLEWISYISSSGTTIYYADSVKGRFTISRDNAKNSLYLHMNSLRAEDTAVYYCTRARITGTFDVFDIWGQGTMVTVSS VL: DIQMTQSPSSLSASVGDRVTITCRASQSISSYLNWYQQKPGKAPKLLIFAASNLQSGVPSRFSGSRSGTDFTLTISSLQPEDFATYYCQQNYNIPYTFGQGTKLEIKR: 7
H4H12884P (antibody, human IgG4 S228P, kappa, V domains shown, fully human anti-IL2Rgamma mAb, human IgG4 Fc) VH: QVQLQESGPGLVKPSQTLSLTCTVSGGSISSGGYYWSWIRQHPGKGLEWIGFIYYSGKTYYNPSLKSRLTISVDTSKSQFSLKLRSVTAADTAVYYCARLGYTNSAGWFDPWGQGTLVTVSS VL: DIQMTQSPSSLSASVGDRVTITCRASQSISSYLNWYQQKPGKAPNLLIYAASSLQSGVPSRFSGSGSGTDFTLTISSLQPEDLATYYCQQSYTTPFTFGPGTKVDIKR: 4

Now look at this one.
Task item: Answer with reported t1/2 of H4H12890P (antibody, human IgG4 S228P, kappa, V domains shown, fully human anti-IL2Rgamma mAb, human IgG4 Fc) VH: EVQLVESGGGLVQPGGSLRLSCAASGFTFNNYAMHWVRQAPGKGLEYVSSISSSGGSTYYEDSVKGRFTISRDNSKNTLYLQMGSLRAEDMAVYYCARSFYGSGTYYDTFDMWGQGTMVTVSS VL: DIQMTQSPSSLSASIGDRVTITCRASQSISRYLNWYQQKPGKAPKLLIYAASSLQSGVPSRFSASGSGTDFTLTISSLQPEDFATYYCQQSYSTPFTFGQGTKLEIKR
Reply: 9
